# targetOrSystem: Cannabinoid-1 receptor (CB1R) (Rattus norvegicus, UniProt P20272)
# Construct: The tissue obtained from the brain of SD rats was homogenized; from tissue; host or cells: brain of SD rats (membrane pellet of the homogenate)
# Sequence (P20272 whole entry): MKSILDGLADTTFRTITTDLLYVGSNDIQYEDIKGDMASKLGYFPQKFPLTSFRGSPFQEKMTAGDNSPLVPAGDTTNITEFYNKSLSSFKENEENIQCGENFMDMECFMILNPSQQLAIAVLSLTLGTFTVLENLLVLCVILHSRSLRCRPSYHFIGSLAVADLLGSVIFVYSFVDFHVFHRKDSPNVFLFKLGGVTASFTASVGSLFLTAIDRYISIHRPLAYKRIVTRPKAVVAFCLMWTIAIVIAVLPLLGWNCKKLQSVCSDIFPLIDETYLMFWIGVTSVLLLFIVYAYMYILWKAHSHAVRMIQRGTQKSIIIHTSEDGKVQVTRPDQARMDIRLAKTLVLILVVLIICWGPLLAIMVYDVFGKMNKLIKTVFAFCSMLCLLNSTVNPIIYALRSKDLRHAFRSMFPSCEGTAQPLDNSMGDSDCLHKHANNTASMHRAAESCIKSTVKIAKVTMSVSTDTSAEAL
# experimentSummary: Cannabinoid-1 receptor (CB1R) binding affinity assay ([3H]CP-55940, rat CB-1 receptor binding protocol)
# appliedConditions: brain tissue of SD rats, [3H]CP-55940, 30° C. 60 min; read-out: IC50
Assignment: determine reported log10(IC50) for the given compounds.
// stored as log10 of IC50 expressed in nM

Cc1c(-c2nnc(Cc3ccccn3)s2)nn(-c2ccc(Cl)cc2Cl)c1-c1ccc(Cl)cc1: 1.61
Cc1c(-c2nnc(C3(c4ccc(Cl)cc4)CC3)s2)nn(-c2ccc(Cl)cc2)c1-c1ccc(Cl)cc1: 2.66
Cc1c(-c2nnnn2Cc2ccncc2)nn(-c2ccc(Cl)cc2Cl)c1-c1ccc(Cl)cc1: 1.95
C=Cc1c(-c2nnc(C3(c4ccc(Cl)cc4)CC3)o2)nn(-c2ccc(Cl)cc2Cl)c1-c1ccc(Cl)cc1: 1.15
CCc1c(-c2nnc(C3CCC3)s2)nn(-c2ccc(Cl)cc2Cl)c1-c1ccc(Cl)cc1: 1.34
Cc1c(-c2nnc(NC3CCCCC3)s2)nn(-c2ccc(Cl)cc2Cl)c1-c1ccc(Cl)cc1: 1.78
CC(C)(C)c1nnc(-c2nn(-c3ccc(Cl)cc3Cl)c(-c3ccc(Br)cc3)c2C=O)o1: 1.27
CCc1c(-c2nnc(C3(c4ccccc4)CCCC3)o2)nn(-c2ccc(Cl)cc2Cl)c1-c1ccc(Br)cc1: 1.19

Batch of 5 compounds: report log10(IC50) for each.
1. OCc1c(-c2nnc(C3(c4ccc(Cl)cc4)CC3)o2)nn(-c2ccc(Cl)cc2Cl)c1-c1ccc(Cl)cc1
2. COc1ccc(C2(c3nnc(-c4nn(-c5ccc(Cl)cc5Cl)c(-c5ccc(Cl)cc5)c4Cn4cncn4)s3)CC2)cc1
3. Cc1c(-c2nnc(C3(c4cccc(Cl)c4)CC3)o2)nn(-c2ccc(Cl)cc2Cl)c1-c1ccc(Cl)cc1
4. CCCc1c(-c2nnc(C3(C(F)(F)F)CC3)o2)nn(-c2ccc(Cl)cc2Cl)c1-c1ccc(Cl)cc1
5. CCCc1c(-c2nnc(C3(C(F)(F)F)CC3)s2)nn(-c2ccc(Cl)cc2Cl)c1-c1ccc(Cl)cc1

[0.60, 0.32, 1.05, 1.18, 1.32]

Batch of 2 compounds: report log10(IC50) for each.
1. Cc1c(-c2nnc(C(C)(C)C)s2)nn(-c2ccc(Cl)cc2Cl)c1-c1ccc(Cl)cc1
2. CCCn1nnc(-c2nn(-c3ccc(Cl)cc3Cl)c(-c3ccc(Cl)cc3)c2C)n1

1: 1.40; 2: 1.79
